- target: Androgen receptor (Homo sapiens, UniProt P10275)
- Sequence (P10275 whole entry): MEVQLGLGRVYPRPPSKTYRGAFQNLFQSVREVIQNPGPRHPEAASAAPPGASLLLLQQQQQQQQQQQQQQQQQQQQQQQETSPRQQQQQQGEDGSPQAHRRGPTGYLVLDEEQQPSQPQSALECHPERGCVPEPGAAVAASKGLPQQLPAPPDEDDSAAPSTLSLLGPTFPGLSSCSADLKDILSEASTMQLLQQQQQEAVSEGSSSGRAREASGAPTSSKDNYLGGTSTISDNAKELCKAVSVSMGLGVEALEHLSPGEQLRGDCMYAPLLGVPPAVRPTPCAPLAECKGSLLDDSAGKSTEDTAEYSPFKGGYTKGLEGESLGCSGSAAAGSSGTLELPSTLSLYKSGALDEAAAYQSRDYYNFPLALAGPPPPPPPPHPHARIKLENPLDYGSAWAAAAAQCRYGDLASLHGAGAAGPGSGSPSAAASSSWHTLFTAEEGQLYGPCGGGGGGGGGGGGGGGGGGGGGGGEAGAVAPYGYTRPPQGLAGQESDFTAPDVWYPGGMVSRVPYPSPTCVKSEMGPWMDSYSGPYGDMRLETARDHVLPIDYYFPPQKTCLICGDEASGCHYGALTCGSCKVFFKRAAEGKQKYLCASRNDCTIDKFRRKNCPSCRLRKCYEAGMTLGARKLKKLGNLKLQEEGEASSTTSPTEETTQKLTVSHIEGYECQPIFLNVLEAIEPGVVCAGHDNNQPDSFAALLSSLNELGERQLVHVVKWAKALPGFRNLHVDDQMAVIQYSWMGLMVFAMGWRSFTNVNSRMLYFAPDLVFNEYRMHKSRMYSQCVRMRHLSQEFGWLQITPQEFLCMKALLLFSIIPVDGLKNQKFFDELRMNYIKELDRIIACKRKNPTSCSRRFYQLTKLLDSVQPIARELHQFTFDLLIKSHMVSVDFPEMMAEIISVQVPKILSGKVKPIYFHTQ
- assay-info: Antagonist activity at androgen receptor in human C4-2-PSA-rl cells incubated for 24 hrs in presence of androgen R1881 by dual-glo luciferase reporter gene assay
pEC50: −log10 of the molar value.
reported-endpoint: pEC50

Here are 5 molecules together with their reported answers.
# molecule, result
records = [
    ("Cc1cccc(N2CCN(C(=O)CSCc3c(C)noc3C)CC2)c1", "< 4.60"),
    ("COc1ccccc1N1CCN(C(=O)CSCc2c(C)noc2C)CC1", "< 4.60"),
    ("Cc1ccccc1N1CCC(OC(=O)NCSCc2c(C)noc2C)CC1", "< 4.60"),
    ("Cc1ccc(Cl)cc1N1CCN(C(=O)[C@@H]2C[C@@H]2c2ccc(F)cc2)CC1", 4.82),
    ("Cc1ccccc1N1CCN(C(=O)/C=C/c2ccccc2)CC1", "< 4.60"),
]

Entry Cc1ccccc1N1CCN(C(=O)[C@H]2C[C@@H]2c2ccccc2)CC1 (relative stereo) — recorded pEC50 = < 4.60

Entry Cc1ccccc1N1CCN(C(=O)NCSCc2c(C)noc2C)CC1 — recorded pEC50 = < 4.60

Entry Cc1noc(C)c1CSCC(=O)N1CCN(c2ccccc2)CC1 — recorded pEC50 = < 4.60

Entry Cc1ccc(Cl)cc1N1CCN(C(=O)[C@H]2C[C@H]2c2ccc(F)cc2)CC1 — recorded pEC50 = 5.77

Entry Cc1ccc(Cl)cc1N1CCN(C(=O)C2CC2c2ccc(F)cc2)CC1 (racemic) — recorded pEC50 = 5.57

Origin of measurements: ChEMBL document CHEMBL4431378
